# EXPERIMENTAL_TARGET: T1, IL-18 receptor (IL-18Rαβ) on cells (UniProt Q13478 19-541; O95256 20-599, limits assumed)
# T1 sequence (looked up) 1: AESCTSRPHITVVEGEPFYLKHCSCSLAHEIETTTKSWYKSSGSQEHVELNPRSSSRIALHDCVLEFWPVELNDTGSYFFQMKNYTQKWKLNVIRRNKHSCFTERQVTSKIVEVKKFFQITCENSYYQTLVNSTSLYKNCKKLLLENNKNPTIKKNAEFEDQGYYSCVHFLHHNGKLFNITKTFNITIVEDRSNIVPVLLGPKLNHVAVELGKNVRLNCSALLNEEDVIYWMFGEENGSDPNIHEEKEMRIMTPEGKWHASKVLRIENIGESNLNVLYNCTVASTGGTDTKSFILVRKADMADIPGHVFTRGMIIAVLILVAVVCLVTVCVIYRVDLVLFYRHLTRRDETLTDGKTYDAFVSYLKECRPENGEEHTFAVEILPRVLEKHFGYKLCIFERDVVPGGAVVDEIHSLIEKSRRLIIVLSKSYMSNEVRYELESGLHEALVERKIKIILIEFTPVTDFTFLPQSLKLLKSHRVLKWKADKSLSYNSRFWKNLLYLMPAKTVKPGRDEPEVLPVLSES
# T1 sequence (looked up) 2: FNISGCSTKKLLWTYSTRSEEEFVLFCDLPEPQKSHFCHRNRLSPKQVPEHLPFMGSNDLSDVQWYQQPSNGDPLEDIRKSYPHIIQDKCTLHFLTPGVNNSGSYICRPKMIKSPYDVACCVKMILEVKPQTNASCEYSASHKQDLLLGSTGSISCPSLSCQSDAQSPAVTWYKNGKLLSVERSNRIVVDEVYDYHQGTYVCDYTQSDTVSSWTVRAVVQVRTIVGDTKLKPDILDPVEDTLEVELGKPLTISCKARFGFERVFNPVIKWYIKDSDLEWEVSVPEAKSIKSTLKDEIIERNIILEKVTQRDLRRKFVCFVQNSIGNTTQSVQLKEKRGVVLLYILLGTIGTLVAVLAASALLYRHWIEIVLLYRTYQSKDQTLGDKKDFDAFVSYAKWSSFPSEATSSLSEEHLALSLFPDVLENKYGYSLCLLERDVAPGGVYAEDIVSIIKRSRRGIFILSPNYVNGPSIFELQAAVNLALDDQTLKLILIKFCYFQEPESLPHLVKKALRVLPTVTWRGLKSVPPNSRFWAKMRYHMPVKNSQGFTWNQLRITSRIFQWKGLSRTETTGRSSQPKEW
# PROTOCOL_TEXT: cell-based or functional assay
Entries and their IFNγ release NK-92 assay EC50 values follow.
Answer with a number only, understood to be in nM.

BINDER	UOM	NUMBER
C318 (ligand) MAAEPVEDNSINFVAMKFIDNTLYFIAEDDENLESDSGRVANYFGKLKSKLSIIRNLNDQVLFIDQGNRPLFEDMTDSDARDNAPRTIFIISMYADSQPRGMAVAISVKCEKISTLSAENKIISFKEMNPPDNIKDTKSDIIFFQRSVPGHDNKMQFESSSYEGYFLAAEKERDLFKLILKKEDELGDRSIMFTVQNED	nM	21.9
C185 (ligand) MAAEPVEDNCINFVAMKFIDNTLYFIAEDDENLESDPLGYFGKLKSKLSIIRNLNDQVLFIDQGNRPLFEDMTDSDARDNAPRTIFIISMYADSQPRGMAVAISVKCEKISTLSAENKIISFKEMNPPDNIKDTKSDIIFFQRSVPGHDNKMQFESSSYEGYFLAAEKERDLFKLILKKEDELGDRSIMFTVQNED	nM	210
C316 (ligand) MAAEPVEDNSINFVAMKFIDNTLYFIAEDDENLESDSGRVANLVGYFGKLKSKLSIIRNLNDQVLFIDQGNRPLFEDMTDSDARDNAPRTIFIISMYADSQPRGMAVAISVKCEKISTLSAENKIISFKEMNPPDNIKDTKSDIIFFQRSVPGHDNKMQFESSSYEGYFLAAEKERDLFKLILKKEDELGDRSIMFTVQNED	nM	532
C326 + MMP9 (ligand) LAGSGYFGKLKSKLSIIRNLNDQVLFIDQGNRPLFEDMTDSDARDNAPRTIFIISMYADSQPRGMAVAISVKCEKISTLSAENKIISFKEMNPPDNIKDTKSDIIFFQRSVPGHDNKMQFESSSYEGYFLAAEKERDLFKLILKKEDELGDRSIMFTVQNED	nM	0.0514
C318 + Matriptase (ligand) MAAEPVEDNSINFVAMKFIDNTLYFIAEDDENLESDSGRVANYFGKLKSKLSIIRNLNDQVLFIDQGNRPLFEDMTDSDARDNAPRTIFIISMYADSQPRGMAVAISVKCEKISTLSAENKIISFKEMNPPDNIKDTKSDIIFFQRSVPGHDNKMQFESSSYEGYFLAAEKERDLFKLILKKEDELGDRSIMFTVQNED	nM	22.1

Now for the binder whose IFNγ release NK-92 assay EC50 we want.
## Input If you can, please state the reported IFNγ release NK-92 assay EC50 value of C315 (ligand) MAAEPVEDNSINFVAMKFIDNTLYFIAEDDENLESDPLGYFGKLKSKLSIIRNLNDQVLFIDQGNRPLFEDMTDSDARDNAPRTIFIISMYADSQPRGMAVAISVKCEKISTLSAENKIISFKEMNPPDNIKDTKSDIIFFQRSVPGHDNKMQFESSSYEGYFLAAEKERDLFKLILKKEDELGDRSIMFTVQNED .
## Output 252
